- System Name: T1, scHLA-B27-mmH (engineered HLA-B*27 ectodomain in-line fusion protein) (human (HLA-B*2705, beta-2 …))
- T1 construct: also called soluble HLA-B*27 fusion protein
- Protocol Details: SPR (Biacore), mAb captured, 37 C, HBST pH 7.4
Quantity: t1/2 (min)
The response must be a number in min with no trailing unit.

Req: Let me know recorded t1/2 for H4H2560P (antibody, V domains shown) VH: QVQLVQSGAEVKKPGASVKVSCKASGYTFTGYFIHWVRQAPGQGLEWVGWINPTSGGTNYAQKFQGRVTMTRDTSISTAYMEMNSLRSDDTAVYYCARKAGYTSTWFDYWGQGTTVTVSS VL: DIVMTQSPDSLTVSLGERATINCKSSQSVLYSSKNKNYLAWYQQKPGQPPNLLVYWASTRESGVPDRFSGSGSGTDFTLTISSLQAEDVAVYYCQQYYSMITFGQGTRLEIK , thanks.
Resp: 4

Req: Let me know recorded t1/2 for H4H2530S (antibody, V domains shown) VH: EVQLVESGPGLVKPSQTLSLTCTVSGGSINSGGSYWSWIRQHPGKGLEWIGYIYSSGNTYYKPSLKSRVTISLDTSKNQFSLKMSSVTAADTAIYYCARDPRGITGTHYFDYWGQGTTVTVSS VL: EIVLTQSPGTLSLSPGERATLSCRTSQSISNKYLAWYQQKPGQAPRLLIYGASTRATGIPDRFSGSGSGTDFTLTISRLEPEDFAVYYCQQFGTSLFTFGPGTKVEIK , thanks.
Resp: 6

Req: Let me know recorded t1/2 for H4H2490N2 (antibody, V domains shown) VH: QVQLVQSGADVKWPGASVKVSCRASGYTFTGYYMHWVRQAPGQGLEWMGWINPNNGGTNYAQKFQGRVTMTRDTSITTVYMELSSLISDDTAVYYCARGEDLELRNYYYYGMDVWGQGTSVTVSS VL: DIQMTQSPSSLSASVGDRVTITCRASQSISSYLNWYQQKPGKAPKLLIYAASNLQSGVPSRFSGSGFGTDFTLTISSLQSEDFATYYCQQTYSTRTFGRGTKVEIK , thanks.
Resp: 1

All values here come from patent US20130259876A1.
